// reported pIC50 for each item listed
# Target of assay: CXCR2 (Homo sapiens)
# Construct: expressed in transfected cells
# Sequence (P25025 1-360): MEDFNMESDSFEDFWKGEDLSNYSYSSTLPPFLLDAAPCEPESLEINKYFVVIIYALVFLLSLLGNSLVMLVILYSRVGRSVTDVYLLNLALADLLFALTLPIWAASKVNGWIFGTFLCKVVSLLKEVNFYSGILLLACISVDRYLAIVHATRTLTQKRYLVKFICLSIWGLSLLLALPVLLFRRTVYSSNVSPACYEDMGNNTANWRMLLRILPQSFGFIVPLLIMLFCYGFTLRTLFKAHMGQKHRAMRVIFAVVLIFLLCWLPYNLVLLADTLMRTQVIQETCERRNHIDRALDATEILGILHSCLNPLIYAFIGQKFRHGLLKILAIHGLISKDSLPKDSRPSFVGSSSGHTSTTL
# Assay remarks: NanoBRET-based G protein activation inhibition assay (REGA-SIGN Gαi1 dissociation) in HEK293A.CXCR2 cells
# Format: cell-based
# Stated conditions: CXCL7 at EC80; mean, n = 3
pIC50 here: minus log base 10 of the concentration, concentration in moles per litre.

Guide cases for pIC50, answers given:
CC(CO)Nc1nc(SCc2cccc(F)c2F)nc2oncc12 (stereo not drawn) | 6.12
CC(CO)Nc1nc(SCc2cccc(F)c2F)nc2cnccc12 (stereo not drawn) | 4.96

Pending molecule:
Inquiry: Which measured pIC50 value corresponds to CC(CCO)Nc1nc(SCc2cccc(F)c2F)nc2[nH]nnc12 (stereo not drawn) ?
Reply text: 5.00

---

# Target of assay: CXCR2 (Homo sapiens)
# Construct: expressed in transfected cells
# Sequence (P25025 1-360): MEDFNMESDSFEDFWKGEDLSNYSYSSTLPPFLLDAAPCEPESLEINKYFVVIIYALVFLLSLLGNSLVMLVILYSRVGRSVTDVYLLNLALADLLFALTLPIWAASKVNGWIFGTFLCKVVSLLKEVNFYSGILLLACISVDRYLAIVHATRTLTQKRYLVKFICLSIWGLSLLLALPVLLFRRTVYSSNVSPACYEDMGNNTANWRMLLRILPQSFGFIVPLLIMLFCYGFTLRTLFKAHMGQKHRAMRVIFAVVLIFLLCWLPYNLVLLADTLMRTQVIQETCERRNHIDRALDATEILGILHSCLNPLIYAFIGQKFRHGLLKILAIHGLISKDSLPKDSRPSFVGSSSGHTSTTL
# Assay remarks: NanoBRET-based G protein activation inhibition assay (REGA-SIGN Gαi1 dissociation) in HEK293A.CXCR2 cells
# Format: cell-based
# Stated conditions: CXCL8 at EC80; mean, n = 3
// reported IC50 for each item listed

Guide cases for IC50, answers given:
CCCC(C)CSc1nc(NC(C)CO)c2nn[nH]c2n1 (stereo not drawn) | > 15 µM
CC(CO)Nc1nc(SCc2cccc(F)c2F)nc2[nH]cnc12 (stereo not drawn) | > 15 µM

Inquiry: Which measured IC50 value corresponds to CC(CO)Nc1nc(SCc2cccc(F)c2F)nc2oncc12 (stereo not drawn) ?
Reply text: 2.49 µM

Inquiry: Which measured IC50 value corresponds to CC(CCO)Nc1nc(SCc2cccc(F)c2F)nc2[nH]nnc12 (stereo not drawn) ?
Reply text: > 15 µM

Inquiry: Which measured IC50 value corresponds to CC(CO)Nc1nc(SCc2cccc(F)c2F)nc2ncsc12 (stereo not drawn) ?
Reply text: > 15 µM

Inquiry: Which measured IC50 value corresponds to CC(CO)Nc1nc(SCc2cccc(F)c2F)nc2cnccc12 (stereo not drawn) ?
Reply text: > 15 µM
